Recorded Metric: Ki (nM)
The answer is to be given in nM; state only the numeric part.

KOR (Cavia porcellus) / Ki / CO[C@@]12CC[C@@H](N[C@@H](C(=O)O)C(C)C)[C@@H]3Oc4c(O)ccc5c4[C@@]31CCN(C)[C@@H]2C5 [Compound 16b] : value? 159

KOR (Cavia porcellus) / Ki / CO[C@@]12CC[C@H](N[C@H](Cc3ccccc3)C(=O)O)[C@@H]3Oc4c(O)ccc5c4[C@@]31CCN(C)[C@@H]2C5 [Compound 17a] : value? 76.4

KOR (Cavia porcellus) / Ki / CO[C@@]12CC[C@@H](N[C@@H](Cc3ccc(O)cc3)C(=O)O)[C@@H]3Oc4c(O)ccc5c4[C@@]31CCN(C)[C@@H]2C5.Cl.Cl [Compound 9b] : value? 186

KOR (Cavia porcellus) / Ki / CO[C@@]12CC[C@@H](N[C@H](C(=O)N[C@@H](Cc3ccc(O)cc3)C(=O)O)C(C)C)[C@@H]3Oc4c(O)ccc5c4[C@@]31CCN(C)[C@@H]2C5 [Compound 22b] : value? 390

These data points were gathered from paper PMC6348443.
